- test details: Water solubility of prodrug was determined
- Type: ADME
- measurement parameters: buffer
measure name: Solubility (µg/mL)
Give the value, in units of µg/mL, as a plain number.

Example results:
Input: I'd like to know its Solubility. The molecule in question is Cc1cccc(C)c1OCC(=O)N[C@@H](Cc1ccccc1)[C@H](OC(=O)CCC(=O)NCC(=O)O)C(=O)N1CSC(C)(C)[C@H]1C(=O)NC(C)(C)C
Output: 73.5

Input: I'd like to know its Solubility. The molecule in question is Cc1cccc(C)c1OCC(=O)N[C@@H](Cc1ccccc1)[C@H](OC(=O)CCC(=O)NCC(N)=O)C(=O)N1CSC(C)(C)[C@H]1C(=O)NC(C)(C)C
Output: 210

Input: I'd like to know its Solubility. The molecule in question is Cc1cccc(C)c1OCC(=O)N[C@@H](Cc1ccccc1)[C@H](OC(=O)CC(C)(C)C(=O)NCCN)C(=O)N1CSC(C)(C)[C@H]1C(=O)NC(C)(C)C.Cl
Output: 136700

Input: I'd like to know its Solubility. The molecule in question is Cc1cccc(C)c1OCC(=O)N[C@@H](Cc1ccccc1)[C@H](OC(=O)CCC(=O)NCCN(C)C)C(=O)N1CSC(C)(C)[C@H]1C(=O)NC(C)(C)C.Cl
Output: 171500

Now look at this one.
Input: I'd like to know its Solubility. The molecule in question is Cc1cccc(C)c1OCC(=O)N[C@@H](Cc1ccccc1)[C@H](OC(=O)CCC(N)=O)C(=O)N1CSC(C)(C)[C@H]1C(=O)NC(C)(C)C
Output: 89.5
